Assayed Target: hGLP-1R (Homo sapiens, UniProt P43220)
Sequence (P43220 24-463): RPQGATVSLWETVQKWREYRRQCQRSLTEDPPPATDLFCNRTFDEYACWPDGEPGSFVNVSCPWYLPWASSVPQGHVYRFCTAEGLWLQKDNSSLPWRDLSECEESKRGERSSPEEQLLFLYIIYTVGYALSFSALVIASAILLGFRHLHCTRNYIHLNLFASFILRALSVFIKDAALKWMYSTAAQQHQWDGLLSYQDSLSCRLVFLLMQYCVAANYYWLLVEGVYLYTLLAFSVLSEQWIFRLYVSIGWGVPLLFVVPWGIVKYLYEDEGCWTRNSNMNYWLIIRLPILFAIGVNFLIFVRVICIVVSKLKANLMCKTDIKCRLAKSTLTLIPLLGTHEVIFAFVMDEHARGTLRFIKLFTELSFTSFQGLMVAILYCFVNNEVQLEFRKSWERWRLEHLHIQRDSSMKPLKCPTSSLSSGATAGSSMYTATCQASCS
Sequence (P32121 whole entry partner): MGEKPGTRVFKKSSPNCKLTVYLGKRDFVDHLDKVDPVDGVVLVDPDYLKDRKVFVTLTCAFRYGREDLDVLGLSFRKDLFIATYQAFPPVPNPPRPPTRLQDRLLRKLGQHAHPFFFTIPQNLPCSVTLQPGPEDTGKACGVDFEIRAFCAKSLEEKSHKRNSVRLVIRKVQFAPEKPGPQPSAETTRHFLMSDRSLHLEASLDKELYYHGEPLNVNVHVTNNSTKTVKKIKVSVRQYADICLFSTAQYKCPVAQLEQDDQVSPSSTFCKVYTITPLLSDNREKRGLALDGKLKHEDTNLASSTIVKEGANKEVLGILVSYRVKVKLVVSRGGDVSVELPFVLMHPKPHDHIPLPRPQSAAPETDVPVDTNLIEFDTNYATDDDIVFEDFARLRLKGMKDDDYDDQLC
Assay Comment: GLP-1R CHO cell β-arrestin recruitment assay;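 also: luminescence read after 90 min peptide exposure at 37 °C and a further 60 min with detection reagent at room temperature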
Format: cell-based
Set-up: host or cells: CHO-K1 (PathHunter, assay-ready frozen cells)
Test Conditions: CHO-K1 PathHunter, β-arrestin-2, 0.1% casein; read-out: hGLP1R β-arrestin Rel EC50
Starred links: 1 amine or outer side, 2 acyl side, 3 side chain; linkers in the order of their positions; H or OH if unused. Non-standard residues stand in square brackets, D forms with d. Groups on a side chain read outwards from the residue. *: point of attachment. C20 diacid = O=C(O)CCCCCCCCCCCCCCCCCCC(=O)*; C18 diacid = O=C(O)CCCCCCCCCCCCCCCCC(=O)*; Phe(4-CN) = N#Cc1ccc(C[C@H](N)C(=O)O)cc1; αMePhe(2-F) = C[C@](N)(Cc1ccccc1F)C(=O)O; γGlu = O=C(O)[C@H](CCC(=O)[*:2])N[*:1]; αMeF = C[C@](N)(Cc1ccccc1)C(=O)O; αMeL = CC(C)C[C@](C)(N)C(=O)O; AEEA = NCCOCCOCC(=O)O; Aib = CC(C)(N)C(=O)O
EC50 listing for selected substances.

{"Substance": "H-Y[Aib]QGT[αMeF]TSDYSILLDKIAAK([AEEA-AEEA-γGlu-C18 diacid])NFIEYLVEGGPSSGEPPPSEG-NH2 [Example 307]", "Operator": "=", "EC50, nM": 9.86}
{"Substance": "H-Y[Aib]QGT[αMePhe(2-F)]TSD[Phe(4-CN)]SILLDKQAQK([AEEA-AEEA-γGlu-C20 diacid])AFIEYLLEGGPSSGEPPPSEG-NH2 [Example 321]", "Operator": "=", "EC50, nM": 8.78}
{"Substance": "H-Y[Aib]QGT[αMePhe(2-F)]TSDYSKLLDKIAQK([AEEA-γGlu-C20 diacid])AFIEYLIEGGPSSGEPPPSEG-NH2 [Example 304]", "Operator": "=", "EC50, nM": 9.21}
{"Substance": "H-Y[Aib]QGT[αMePhe(2-F)]TSDYSKLLDKIAQK([AEEA-γGlu-C20 diacid])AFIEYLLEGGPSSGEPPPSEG-NH2 [Example 295]", "Operator": "=", "EC50, nM": 16.4}
{"Substance": "H-Y[Aib]QGTFTSDFSK[αMeL]LDKK([AEEA-γGlu-C20 diacid])AQ[Aib]AFIEYLLAGGPSSGEPPPSSE-NH2 [Example 3]", "Operator": ">", "EC50, nM": 10000}

====

pEC50 listing for selected substances.
Assayed Target: hGIPR (Homo sapiens, UniProt P48546)
Sequence (P48546 22-466): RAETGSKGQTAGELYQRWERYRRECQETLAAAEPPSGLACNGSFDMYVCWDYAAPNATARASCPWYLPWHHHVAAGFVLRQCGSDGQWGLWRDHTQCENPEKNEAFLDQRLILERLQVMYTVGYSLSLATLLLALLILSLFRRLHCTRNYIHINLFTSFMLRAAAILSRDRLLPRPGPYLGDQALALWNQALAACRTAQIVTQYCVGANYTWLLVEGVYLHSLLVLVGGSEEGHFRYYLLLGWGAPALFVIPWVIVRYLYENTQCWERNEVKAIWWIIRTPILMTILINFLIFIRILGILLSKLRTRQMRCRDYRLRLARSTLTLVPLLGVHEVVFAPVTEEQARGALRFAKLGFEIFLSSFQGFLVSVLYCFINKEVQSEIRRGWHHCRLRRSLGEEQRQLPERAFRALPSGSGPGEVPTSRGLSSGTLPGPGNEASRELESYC
Assay Comment: Functional cAMP activity in the presence of 1% HSA
Type: cell-based
Test Conditions: read-out: cAMP Rel EC50, hGIPR
pEC50: −log10 of the molar value. Starred links: 1 amine or outer side, 2 acyl side, 3 side chain; linkers in the order of their positions; H or OH if unused. Non-standard residues stand in square brackets, D forms with d. Groups on a side chain read outwards from the residue. *: point of attachment. C20 diacid = O=C(O)CCCCCCCCCCCCCCCCCCC(=O)*; C18 diacid = O=C(O)CCCCCCCCCCCCCCCCC(=O)*; Phe(4-CN) = N#Cc1ccc(C[C@H](N)C(=O)O)cc1; αMePhe(2-F) = C[C@](N)(Cc1ccccc1F)C(=O)O; γGlu = O=C(O)[C@H](CCC(=O)[*:2])N[*:1]; αMe4Pal = C[C@](N)(Cc1ccncc1)C(=O)O; αMeY = C[C@](N)(Cc1ccc(O)cc1)C(=O)O; 4Pal = N[C@@H](Cc1ccncc1)C(=O)O; αMeL = CC(C)C[C@](C)(N)C(=O)O; αMeS = C[C@](N)(CO)C(=O)O; Orn = NCCC[C@H](N)C(=O)O; AEEA = NCCOCCOCC(=O)O; Aib = CC(C)(N)C(=O)O

{"Substance": "H-Y[Aib]QGT[αMePhe(2-F)]TSD[4Pal][αMeS]I[αMeL]LD[Orn]K([γGlu-γGlu-C18 diacid])AQ[Aib][Orn]FI[dE]YLIEGGPSSGEPPPSGTEE-NH2 [Example 535]", "Assayed Target": "hGIPR (Homo sapiens, UniProt P48546)", "pEC50": 8.94}
{"Substance": "H-Y[Aib]QGT[αMePhe(2-F)]TSD[4Pal][αMeS]I[αMeL]LD[Orn]K([γGlu-γGlu-C18 diacid])AA[Aib]EFI[dE][αMeY]LIEGGPSSGAPPPSGGGE-NH2 [Example 747]", "Assayed Target": "hGIPR (Homo sapiens, UniProt P48546)", "pEC50": 9.19}
{"Substance": "H-Y[Aib]QGTFTSDFS[Orn][αMeL]LDKK([AEEA-γGlu-C18 diacid])AQ[Aib]AFIEYLLE[Aib]GPSS[Aib]APPPSGS-NH2 [Example 238]", "Assayed Target": "hGIPR (Homo sapiens, UniProt P48546)", "pEC50": 8.06}
{"Substance": "H-Y[Aib]QGTFTSDFSK[αMeL]LDKK([AEEA-γGlu-C20 diacid])AQ[Aib]AFIEYLLAGGPSSGAPPPGGS-NH2 [Example 16]", "Assayed Target": "hGIPR (Homo sapiens, UniProt P48546)", "pEC50": 7.44}
{"Substance": "H-Y[Aib]QGT[αMePhe(2-F)]TSD[Phe(4-CN)]SKLLDKIAQK([AEEA-γGlu-C20 diacid])AFIEYLIEGGPSSGEPPPSGS-NH2 [Example 364]", "Assayed Target": "hGIPR (Homo sapiens, UniProt P48546)", "pEC50": 7.00}
{"Substance": "H-Y[Aib]QGTFTSDFS[Orn][αMeL]LDKK([AEEA-γGlu-C18 diacid])AQ[Aib]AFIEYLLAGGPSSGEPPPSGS-NH2 [Example 94]", "Assayed Target": "hGIPR (Homo sapiens, UniProt P48546)", "pEC50": 7.67}
{"Substance": "H-Y[Aib]QGTFTSD[4Pal][αMeS]Q[αMeL]LD[Orn]K([dE-γGlu-C18 diacid])AQ[αMe4Pal]QFIQ[αMeY]LIE[Aib]GPSSGAPPPSGGGE-NH2 [Example 1186]", "Assayed Target": "hGIPR (Homo sapiens, UniProt P48546)", "pEC50": 8.50}
{"Substance": "H-Y[Aib]QGT[αMePhe(2-F)]TSD[4Pal][αMeS]I[αMeL]LD[Orn]K([AEEA-γGlu-C18 diacid])AQ[αMe4Pal]EFI[dE][αMeY]LIEGGPSSGEPPPEGE-NH2 [Example 1149]", "Assayed Target": "hGIPR (Homo sapiens, UniProt P48546)", "pEC50": 9.02}
{"Substance": "H-Y[Aib]QGTFTSD[4Pal]SQ[αMeL]LDKK([AEEA-γGlu-γGlu-C18 diacid])AQ[αMe4Pal]AFIEWLIEGGPSSGAPPPSGS-NH2 [Example 871]", "Assayed Target": "hGIPR (Homo sapiens, UniProt P48546)", "pEC50": 7.45}
{"Substance": "H-Y[Aib]QGT[αMePhe(2-F)]TSD[4Pal][αMeS]I[αMeL]LD[Orn]K([γGlu-γGlu-C18 diacid])AQ[Aib][Orn]FI[dE][αMeY]LAEGGPSSGEPPPSGAEE-NH2 [Example 591]", "Assayed Target": "hGIPR (Homo sapiens, UniProt P48546)", "pEC50": 8.52}
{"Substance": "H-Y[Aib]QGTFTSDFS[Orn][αMeL]LDKK([AEEA-γGlu-C18 diacid])AQ[Aib]AFIEYLLEGGPSSGAPPPGGE-NH2 [Example 63]", "Assayed Target": "hGIPR (Homo sapiens, UniProt P48546)", "pEC50": 7.39}
